Each recorded value in this set is attributed to the nanobody polyreactivity screen of Harvey et al. (2022).

Procedure details: yeast display, Sf9 membrane polyspecificity reagent, FACS + sequencing; frameworks hold sequencing errors
Quantity measured: polyreactivity (PSR sort gate)

{"Biosequence": "QVQLVESGGGLVQAGGSLRLSCAASGFTFVKYAMGWYRQAPGKERELVAVISRRGGSTYYADSVKGRFTISRDNAKNTVYLQMNSLKPEDTAVYYFAAKVALPRTQEWEYGYWGQGTQVTVSS", "Endpoint value": "high polyreactivity"}
{"Biosequence": "QVQLVESGGGLVQAGCSLRLSCAASGIIFGYYAMGWYRQAPVKERELVAAISSRGSRTYYSDSLKGRFTISRDNAKNTVYLQMNSLIPEDTAVYYCAVRGKFDYWGQGTQVTVSS", "Endpoint value": "high polyreactivity"}
{"Biosequence": "QVQLVESGGGLVQAGGSLRLSGAASGSIFPGYAMGWYRQPPGKERELVATITWSGGSTYYADSVKGRFTISRDNAKNTVYLQMNSLKPEDSAVYYCAAERSWYTGFARDYDYWGQGTQVTVSS", "Endpoint value": "low polyreactivity"}
{"Biosequence": "QVQRVESGGGLVQAGGSLRLSCAASGSIFGVYTRGWYRQAPGKESELVAAITSAGSTYADSVKGRFTISRDNAKNTVYLQMNSLKPEDTAVYYCAAGFHKRVTPEILYDYWGQGTQVTVSS", "Endpoint value": "low polyreactivity"}
{"Biosequence": "QVQLVESGGGLVQAGGSLRISCAASGFTFPYYAMGWYRQAPGKERELVAAISYNGGSTYYADSVKGRFTISRDNAKNTVYLQMNSLKPEDTAVYYCNAVYYDSGVVGYYYWGQGTQVTVSS", "Endpoint value": "high polyreactivity"}

Query string: Could you share which polyreactivity (PSR sort gate) value was measured for `QVQLVESGGGLVQAGGSLSLSCAAYGFTFWKYAMGRSRQAPGKESELVAAISVSGGRTYYADSVKGRFTISGDNAKNTVYLQINSLKPEDTASYYVATSFRNGWGSYYYWGQGTQVTVSS` ?
Result string: high polyreactivity

Query string: # lookup: polyreactivity (PSR sort gate) of `QDQLVESGGGLVQAGGSLRLSCAASGSTLFIYARGWYRQAPGKEREFVAGISYSGGSTYYADSVKGRFTISRDNAKNTVYLQMNSLKPEDTAVYYCAAATVYLSWYYWGQGTQVTVSS`
Result string: high polyreactivity

Query string: Would you mind telling me what polyreactivity (PSR sort gate) value was observed for `QVQLEESGGGLVQSGGSLRLSCAASGRTFSGYAMGSYRQAPGKERELVSAISFSGGSTYYADSVKGRFTISRDNAMNTVYLQMNSLIPEDTAVYYCNAYSWYNGIGNYDYWGQGTQVTVSS` ?
Result string: low polyreactivity

====

Procedure details: yeast display, Sf9 membrane polyspecificity reagent, FACS + sequencing; frameworks hold sequencing errors
Quantity measured: polyreactivity (PSR sort gate)

{"Biosequence": "QVQLVESGGGLVQAGGSLRLSSAASGSIFSRYAMGWYRQAPGIERELVAAITWSGGSTYYADSVKGRFTISRDNAKNTVYLQMNSLKPEDTAVYYCAAFGYAPYNHRYDYWGQGTQVTVSS", "Endpoint value": "low polyreactivity"}
{"Biosequence": "QVQLVESGGGLVQAGGSLRLSCAASGSTIRNYAMGWYRQAPGKERELVAAISSGGRTYYADSVKGRFTISRDNAKNTVYLQMNSLKPEDTAVYYCNTPYTVRGRYTYDYWGQGTQVTVSS", "Endpoint value": "high polyreactivity"}
{"Biosequence": "QVQLVESGGGLVQAGGRLRLSCAASGRTIANYAMGWYRQAPGKERELVAAISFSTVSTYYADSVKGRFTISRDNAKNTVYLQMNSLKPEDTAVYYCAARRLGYYRKVKELDYWGQGTQVTVSS", "Endpoint value": "high polyreactivity"}
{"Biosequence": "QVQLVESGGGLVQAGGSLRLSCAASGNTFDEYAMGWYRQAPGKEREFVAAIRNTYYADSVKGRFTISRDNAKNTVYLQMNSLKPEDTAVYYCAKPSQLHPYEYWGQGTQVTVSS", "Endpoint value": "low polyreactivity"}

====

Procedure details: yeast display, Sf9 membrane polyspecificity reagent, FACS + sequencing; frameworks hold sequencing errors
Quantity measured: polyreactivity (PSR sort gate)

{"Biosequence": "QVQLVESGGGLVQAGGSLRLSCAASGSTFGNYAMGWYRQAPGKERELVAAISVGDGSTYYADSVKGRFTISRDNAKNTVYLQMNSLKPEDTAFYYCAADFVYPSWHYDYWGQGTQVTVSS", "Quantity measured": "polyreactivity (PSR sort gate)", "Endpoint value": "high polyreactivity"}
{"Biosequence": "QVQLVESGGGLVQAGGSLRLSCAASGRTFGRNAMGWYRQAPGKERELVAAINGNGGRTSYADSVKGRFTISRDNAKNTVYLPMNSLKPEDTAVYYCNKYTPGWYRYYYWGQGTQVTVSS", "Quantity measured": "polyreactivity (PSR sort gate)", "Endpoint value": "high polyreactivity"}

====

Procedure details: yeast display, Sf9 membrane polyspecificity reagent, FACS + sequencing; frameworks hold sequencing errors

{"Biosequence": "QDQLVESGGGLVQAGASRRLRCAASGSIFGRNTMGWYRQAPGKESELVAAISSGGRTYYADSVKGRFTISRDNAKYTVFLQMNSLKPEDTAVYYCAAALRRRRADFDYWGQGTQVTVSS", "polyreactivity (PSR sort gate)": "high polyreactivity"}
{"Biosequence": "QVQLVESGGGLVQAGGSLRLSCAASGGTFYGYAAMGWYRQAPGKERELVAAISRSGGRTYYADSVKGRFTISRDNAKNTVYLQMNSLKPEDTAVYYCNVGFYPYYFLTYQGGDYWGQGTQVTVSS", "polyreactivity (PSR sort gate)": "high polyreactivity"}
{"Biosequence": "QVQLVESGGGLVQAGGSLRLSCAASGRTFKENAMGWYRQAPGKERELVAVINSGGRTYYADSVKGRFTISRDNAKNTVYLQMNSLKPEDTAVYYCAAYSRSKESGYWGQGTQVTVSS", "polyreactivity (PSR sort gate)": "high polyreactivity"}

====

Procedure details: yeast display, Sf9 membrane polyspecificity reagent, FACS + sequencing; frameworks hold sequencing errors

{"Biosequence": "QVQLVESGGGLVQAGGSLRLSCAASGFIFGWNAMGWYRQAPGKERELVATITRGSTYYADSVKGRFTISRDNAKNTVYLQMNSLKPEDTAVYYCNVVYYGRWANYDYWGQGTQVTVSS", "polyreactivity (PSR sort gate)": "low polyreactivity"}
{"Biosequence": "QVQLVESGGGLVQAGGSLRLSCAASGSTFWYYAMGWSRQAPGKERELVADITYSGVSTYYADSVKGRFTISRDNAKNTVYLQMNSLKPEDTAVYYCNAVWGSVKGYSGYYYWGPGTQVTVSS", "polyreactivity (PSR sort gate)": "low polyreactivity"}
{"Biosequence": "QDHLVESGGGLVQAGGSLRLSCAASGSPFPSYAMGWYRQAPGKERELVAAINSGGGTTYADSVQGRFTISRDKAKNTVYLQMNSLKPEDTAVYYCARGPLSWHSYVEAEYGYWGQGTQVTVSW", "polyreactivity (PSR sort gate)": "low polyreactivity"}

====

Procedure details: yeast display, Sf9 membrane polyspecificity reagent, FACS + sequencing; frameworks hold sequencing errors
Quantity measured: polyreactivity (PSR sort gate)

Please review the entries below; each comes with its answer.
{"Biosequence": "QVQLVESGGGLVQAGGSLRLSCASSGSTFAQNTMGWYRQAPRKERELVATISDGGGSTYYADSVKGRFTISRDNAKNTVYLQMNSLKPEDTAVYYCNTDRFWPSDYWGQGTQVTVSS", "Endpoint value": "low polyreactivity"}
{"Biosequence": "QVQLVESGGGLVQAGGSLRLSCAASGSIFHDNAKGWYRQAPGKERELVAAINRGGSTHYADSVKGRFTISRDNAKNTVYLQMNSLKPEDTAVYYCNTVGRGYDYDYWGQGTQVTVSS", "Endpoint value": "low polyreactivity"}
{"Biosequence": "QVQLVESGGGLVQAGGSLRLICAASGSIFAVNAMGWYRQAPGKERELVAAISRRGGSTYYADSVKGRFTISRDNAKITDYLQMNSLKPEDTAVYYCAKRWKATRARYDYWGQGTQVTVAS", "Endpoint value": "high polyreactivity"}
{"Biosequence": "QVQLVESGGGLVQAGGSLRLSCAASGRIFGTNAMGWYRQAPGKERELVAAITWRGGSTYYADSVKGRFTISRDNAKNTVYLQMNSLKPVDTAVYYCAKDLVYWYQTIRAGISNYWGQGTQVTVSS", "Endpoint value": "low polyreactivity"}
{"Biosequence": "QVQLVESVGGLVQAGGSLRLSCAASGSIFLQNAMGGYRQAPGKERELVAAITNGGSTNYADSVKGRFTISRDNAKNTVYLQMNSLKPEDTAVYYCAAYPLYTGSYDRGGYWGQGTLVTVSS", "Endpoint value": "low polyreactivity"}

Query string: Name the reported polyreactivity (PSR sort gate) value associated with the sequence `QLQLVESGGGLVQAGGSLRLSCAASGIIFDGYSRGWYRQAPGKEREFVAAITSGGGSTSYADSVKGRFTISRDYAKNTVYLQMNSLKPEDTAVYYCAARSNRFYVRQRYGYWGQGTQVTVSS`
Result string: high polyreactivity
